Hey, just so you know, these numbers are from paper PMC4820820.

Biological target: human thymidylate synthase (TS) (Homo sapiens, UniProt P04818)
Construct: screening in live, non-engineered cells expressing thymidylate synthase; endogenous in cells; host or cells: K562 (human myelogenous leukemia) cells
Sequence (P04818 2-313 limits assumed): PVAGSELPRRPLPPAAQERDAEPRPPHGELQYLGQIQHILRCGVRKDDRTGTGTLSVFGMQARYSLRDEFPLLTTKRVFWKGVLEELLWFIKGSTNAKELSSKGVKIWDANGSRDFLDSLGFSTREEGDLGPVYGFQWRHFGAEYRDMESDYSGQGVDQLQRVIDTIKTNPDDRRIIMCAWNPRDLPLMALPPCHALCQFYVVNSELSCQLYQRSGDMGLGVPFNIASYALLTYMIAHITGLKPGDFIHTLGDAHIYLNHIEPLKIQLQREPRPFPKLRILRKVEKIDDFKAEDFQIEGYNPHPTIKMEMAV
Assay: CETSA primary screen / single-concentration retest, AlphaScreen, live K562 cells
Format: cell-based
Conditions: K562, 2 h, 50 μM compound, 2 h preincubation, 50 °C; 0% = DMSO, 100% = 100 nM raltitrexed; read-out: % stabilization in screen
Catalogue of compounds with associated % stabilization in screen at 50 µM
Could you write the number and then its unit?

>  <COMPOUND>
c1cnc(N2CCN(Cc3ccc4c(c3)OCO4)CC2)nc1 [CBK041124C, Piribedil, reference compound]

>  <STUDY SYSTEM>
human thymidylate synthase (TS) (Homo sapiens, UniProt P04818)

>  <% stabilization in screen at 50 µM>
17%

$$$$
>  <COMPOUND>
Clc1ccc(C(Cn2ccnc2)OCc2csc3c(Cl)cccc23)c(Cl)c1 (stereo not drawn) [CBK200917G, Sertaconazole nitrate, reference compound]

>  <STUDY SYSTEM>
human thymidylate synthase (TS) (Homo sapiens, UniProt P04818)

>  <% stabilization in screen at 50 µM>
66%

$$$$

Below: the item to evaluate.
Which % stabilization in screen at 50 µM is reported for this compound? O=c1[nH]c(=O)n([C@H]2C[C@H](O)[C@@H](CO)O2)cc1F [floxuridine, 5-fluorodeoxyuridine]
64%

----------
Molecular target: human thymidylate synthase (TS) (Homo sapiens, UniProt P04818)
Construct: screening in live, non-engineered cells expressing thymidylate synthase; endogenous in cells; host or cells: K562 (human myelogenous leukemia) cells
Assay: CETSA primary screen / single-concentration retest, AlphaScreen, live K562 cells
Type: cell-based
Details: K562, 2 h; read-out: % stabilization in screen
Lab note: anything with % stabilization in screen at 50 µM at or over 50% counts as 1; the rest go in 0.

// below: answered molecules
>  <MOLECULE>
O=c1[nH]cc(F)c(=O)[nH]1

>  <LABEL VALUE>
0

$$$$
>  <MOLECULE>
Nc1ccn([C@@H]2O[C@H](CO)[C@@H](O)C2(F)F)c(=O)n1 [CBK200978, gemcitabine, reference compound]

>  <LABEL VALUE>
0

$$$$
>  <MOLECULE>
CC(C)NCC(O)c1ccc(NS(C)(=O)=O)cc1 (centres unmarked) [CBK012353C, Sotalol, reference compound]

>  <LABEL VALUE>
0

$$$$
>  <MOLECULE>
C=CCOc1nc2c(=O)[nH]c(NC(=O)C(C)C)nc2n1[C@H]1C[C@H](O)[C@@H](CO)O1

>  <LABEL VALUE>
0

$$$$
>  <MOLECULE>
Nc1nc(N)c2nc(-c3ccccc3)c(N)nc2n1 [CBK012158, Triamterene, reference compound]

>  <LABEL VALUE>
1

$$$$
>  <MOLECULE>
COc1ccccc1N1CCN(CC(O)COc2cccc3ccccc23)CC1 (centres unmarked) [CBK041301C, Naftopidil, reference compound]

>  <LABEL VALUE>
1

$$$$
>  <MOLECULE>
Cc1cc(O)nc2sc(C(=O)c3ccccc3)c(N)c12

>  <LABEL VALUE>
0

$$$$

Please find the next molecule below.
# bool: % stabilization in screen at 50 µM of O=c1[nH]c(=O)n([C@H]2C[C@H](O)[C@@H](CO)O2)cc1C(F)(F)F >= 50%
1

----------
Target: human thymidylate synthase (TS) (Homo sapiens)
Construct: screening in live, non-engineered cells expressing thymidylate synthase; endogenous in cells; host or cells: K562 (human myelogenous leukemia) cells
Experiment: ITDRF CETSA at 50 °C, AlphaScreen detection, live K562 cells
Format: cell-based
Conditions: 2 h preincubation, 50 °C for 3 min, read-out: […] apparent EC50
RESULT TYPE: EC50 (µM)
All answers are understood in µM, so give the number only.

Record lookup: for human thymidylate synthase (TS) (Homo sapiens), what EC50 belongs to O=c1[nH]cc(F)c(=O)[nH]1 ?
19

----------
Target: human thymidylate synthase (TS) (Homo sapiens, UniProt P04818)
Construct: screening in live, non-engineered cells expressing thymidylate synthase; endogenous in cells; host or cells: K562 (human myelogenous leukemia) cells
Assay: CETSA primary screen / single-concentration retest, AlphaScreen, live K562 cells
Format: cell-based
Settings: 50 μM compound, 2 h preincubation, 50 °C; 0% = DMSO, 100% = 100 nM raltitrexed
Entries and their % stabilization in screen
The answer is to be given in %; state only the numeric part.

Recorded % stabilization in screen, per entry:
>  <COMPOUND>
Cc1cn([C@@H]2O[C@H](CO)[C@H](O)C2O)c(=O)[nH]c1=O (some centres unmarked)

>  <RECORDED MEASUREMENT>
17

$$$$
>  <COMPOUND>
CN(C)/C=N/c1nc(=O)n([C@H]2CC(O)[C@@H](CO)O2)cc1/C=C/C(=O)NCCCCCCNC(=O)C(F)(F)F (some centres unmarked)

>  <RECORDED MEASUREMENT>
13

$$$$
>  <COMPOUND>
Nc1nc(=O)n([C@H]2C[C@@H](O)[C@@H](CO)O2)cc1O

>  <RECORDED MEASUREMENT>
22

$$$$
>  <COMPOUND>
COCc1cn(C2CC(O)C(CO)O2)c(=O)[nH]c1=O (centres unmarked)

>  <RECORDED MEASUREMENT>
23

$$$$

I would be grateful if you could share the reported % stabilization in screen for Cc1ccc(S(=O)(=O)OC[C@H]2O[C@@H](n3ccc(=O)[nH]c3=O)C[C@H]2O)cc1 .
-2

// % stabilization in screen lookup, key: C#CCOc1cn([C@H]2C[C@@H](O)[C@@H](CO)O2)c(=O)[nH]c1=O
7

Any idea what its % stabilization in screen is? The compound is O=c1ncccn1[C@@H]1O[C@H](CO)[C@H](O)C1O (some centres unmarked)
22

I am curious: what % stabilization in screen value has been reported for C[CH2][Hg][S]c1ccccc1C(=O)[O-].[Na+] [CBK200591N, Thimerosal, reference compound] ?
115

Which measured % stabilization in screen value corresponds to O=c1nc2c(cn1[C@H]1C[C@@H](O)[C@@H](CO)O1)Sc1ccccc1N2 ?
9

I'd like to know its % stabilization in screen. The compound in question is O=c1[nH]c(=O)n([C@@H]2O[C@H](CO)[C@H](O)C2O)cc1I (some centres unmarked)
-1

Give the measured % stabilization in screen of Nc1ccn([C@H]2C[C@@H](O)[C@@H](CO)O2)c(=O)n1 .
-1

Which % stabilization in screen is reported for this compound? COC1C(O)C(CO)OC1n1cc(F)c(=S)[nH]c1=O (centres unmarked)
2

----------
Target: human thymidylate synthase (TS) (Homo sapiens, UniProt P04818)
Construct: screening in live, non-engineered cells expressing thymidylate synthase; endogenous in cells; host or cells: K562 (human myelogenous leukemia) cells
Assay: ITDRF CETSA at 50 °C, AlphaScreen detection, live K562 cells
Type: cell-based
Settings: 2 h preincubation, 50 °C, unit taken from curve axis log [cmp] (M), read-out: ITDRF CETSA (hit confirmation)
RESULT TYPE: EC50 (M)
Please respond with the number in M and leave the unit unwritten.

Study these solved cases before continuing.
>  <COMPOUND>
Cc1cc(C)c(Oc2nc(=O)n([C@H]3C[C@@H](O)[C@@H](CO)O3)cc2F)c(C)c1 [CBK201184]

>  <STUDY SYSTEM>
human thymidylate synthase (TS) (Homo sapiens, UniProt P04818)

>  <RESULT UNIT>
M

>  <EC50>
9.17e-06

$$$$
>  <COMPOUND>
C#Cc1cn([C@H]2C[C@H](O)[C@@H](CO)O2)c(=O)[nH]c1=O [CBK201207, 5-ethynyl-2′-deoxyuridine, reference compound]

>  <STUDY SYSTEM>
human thymidylate synthase (TS) (Homo sapiens, UniProt P04818)

>  <RESULT UNIT>
M

>  <EC50>
1.41e-09

$$$$
>  <COMPOUND>
COCc1cn(C2CC(O)C(CO)O2)c(=O)[nH]c1=O (stereo not drawn) [CBK201230]

>  <STUDY SYSTEM>
human thymidylate synthase (TS) (Homo sapiens, UniProt P04818)

>  <RESULT UNIT>
M

>  <EC50>
1.42e-07

$$$$
>  <COMPOUND>
Nc1ncn([C@H]2C[C@H](O)[C@@H](CO)O2)c(=O)n1 [decitabine, 5-Aza-deoxycytidine]

>  <STUDY SYSTEM>
human thymidylate synthase (TS) (Homo sapiens, UniProt P04818)

>  <RESULT UNIT>
M

>  <EC50>
6.87e-08

$$$$
>  <COMPOUND>
O=c1[nH]c(=O)n([C@H]2C[C@H](O)[C@@H](CO)O2)cc1F [floxuridine, 5-fluorodeoxyuridine]

>  <STUDY SYSTEM>
human thymidylate synthase (TS) (Homo sapiens, UniProt P04818)

>  <RESULT UNIT>
M

>  <EC50>
6.61e-11

$$$$
>  <COMPOUND>
CC#Cc1cn([C@H]2C[C@@H](O)[C@@H](CO)O2)c(=O)[nH]c1=O [CBK201182]

>  <STUDY SYSTEM>
human thymidylate synthase (TS) (Homo sapiens, UniProt P04818)

>  <RESULT UNIT>
M

>  <EC50>
2.28e-05

$$$$

// lookup EC50 for O=c1[nH]c(=O)n([C@H]2C[C@H](O)[C@@H](CO)O2)cc1C(F)(F)F [TFT, 5-trifluoro-2′-deoxythymidine]
3.18e-10

Entry under review: CCc1nc(N)nc(N)c1-c1ccc(Cl)cc1 [CBK041886, Pyrimethamine, reference compound] . Reported EC50?
8.38e-06

Could you tell me which EC50 is on file for Nc1nc(=O)n([C@H]2C[C@@H](O)[C@@H](CO)O2)cc1O [CBK201221] ?
3.43e-07
